Would you kindly list Normal melting temperature for each of these molecules?
CONDITION SUMMARY: Crystal; DTA
One number for each entry, in °C.

Previously resolved entries follow.
Clc1ccc2ccccc2n1 [2-chloroquinoline] | 38.4
Clc1ccc2c(Cl)ccnc2c1 [4,7-dichloroquinoline] | 92.4
Clc1ccnc2ccccc12 [4-chloroquinoline] | 35

Now examine the next entry.
query: # get_value(readout='Normal melting temperature', item= Clc1ccc2ncccc2c1 [6-chloroquinoline] )
result: 46

Every entry's value here was drawn from the NIST ThermoML archive (doi:10.1016/j.jct.2005.03.011).
